List of log10(microsomal CLint at 1 µM) values.
Assay: Metabolic stability in human liver microsomes assessed as clearance at 1 uM incubated for 15 to 30 mins in the presence of NADPH generating system by LC-MS/MS analysis
Assay type: ADME, Microsome
Details: time 15-30 min, read-out: CLH
Base-10 log of microsomal CLint at 1 µM, unit µL/min/mg.

Use these answered entries as a reference point.
>>> value_measured("CCN(Cc1cc(C)n(C[C@H]2C[C@@H]2C#N)c(=O)c1)c1ccc(F)cc1")
1.68
>>> value_measured("Cc1cc(Cn2nc(C(F)(F)F)cc2Cl)cc(=O)n1C[C@H]1C[C@@H]1C#N")
0.30
>>> value_measured("Cc1cc(Cn2nc(Cl)cc2Cl)cc(=O)n1C[C@H]1C[C@@H]1C#N")
1.08
>>> value_measured("Cc1cc(Cn2nc(Br)cc2Cl)cc(=O)n1C[C@H]1C[C@@H]1C#N")
1.45
>>> value_measured("Cc1cccc(Cc2cc(C)n(C[C@H]3C[C@@H]3C#N)c(=O)c2)c1")
1.18

Now take the following compound into account.
Report log10(microsomal CLint at 1 µM), nothing else, for this compound: Cc1cc(Cc2cccc(Br)c2)cc(=O)n1C[C@H]1C[C@@H]1C#N
1.38
